# Tested on: 786-0
# Assay protocol: NCI tumour cell line growth inhibition, 48 h
Active and inactive are the calls of the source. Cut-off read from the data, not from the text of the source: active = GI50 up to about 1.1 µM and inactive = higher.
Measured metric: GI50

CN(C)CCN(C)C(=O)C1CCCN1C(=O)OCc1ccccc1 (configuration not stated) | > 100 µM (inactive)

For every item below, please supply its GI50.
1. CCOC(=O)C1=C(Nc2cccc3ccccc23)OC/C1=N\NC(=O)c1ccccc1O
2. O=C1c2ccccc2C2(O)Nc3c(ccc4ccccc34)C12O (configuration not stated)
3. O=C1CCCCC1C(O)(C(F)(F)F)C(F)(F)Cl (configuration not stated)
4. Cc1nc2c(nc1C)-c1c(c3c(n1Cc1ccccc1)C(=O)CCC3)C(=O)C2=O
5. C/C(=N\NC(=O)c1cccnc1)c1cccc(/C(C)=N/NC(=O)c2cccnc2)n1.CC(=O)[O-].CC(=O)[O-].[Zn+2]
6. CC1(C)CCCCCC(C)(CCCO)C1=O (configuration not stated)
7. Cc1c2c(nc3ccccc13)C(=O)c1cccnc1C2=O

["21 µM (inactive)", "> 100 µM (inactive)", "> 10 µM (inactive)", "3.42 µM (inactive)", "4.43 µM (inactive)", "> 100 µM (inactive)", "33.3 µM (inactive)"]

For every item below, please supply its GI50.
1. Cc1cc(C)nc(NS(=O)(=O)c2ccc(Nc3c4ccc(Cl)cc4nc4c(C(=O)Nc5ccc(S(N)(=O)=O)cc5)cccc34)cc2)n1
2. CC[P+]1(c2ccccc2)CCCCC1
3. CCN(CC)c1ccc(/C=C2\CCc3ccc([N+](=O)[O-])cc3C2=O)cc1
4. CCN(CC)CC(C(C)=O)C(c1ccccc1)c1c(O)c2ccccc2oc1=O (configuration not stated)

1. 15.2 µM (inactive)
2. > 100 µM (inactive)
3. 2.84 µM (inactive)
4. > 100 µM (inactive)
